- Test system: Providencia rettgeri
- Procedure Summary: In vitro antibacterial activity against Providencia rettgeri strain 21203
- Assay type: functional
Measured Metric: MIC (µg/mL)

# Molecule, Test System, Display Unit, Comparator, Data Value
measured = [
    ("COC(=O)/C=C1\\SC2C(NC(=O)C(N)c3ccccc3)C(=O)N2C(C(=O)O)=C1C.O=C(O)C(F)(F)F (configuration not stated)", "Providencia rettgeri", "µg/mL", ">", 125),
    ("CO/N=C(/C(=O)NC1C(=O)N2C(C(=O)O)=C(C)/C(=C/C(=O)OC)SC12)c1ccco1 (configuration not stated)", "Providencia rettgeri", "µg/mL", "=", 32),
    ("COC(=O)/C=C1/SC2C(NC(=O)Cc3cccs3)C(=O)N2C(C(=O)O)=C1C (configuration not stated)", "Providencia rettgeri", "µg/mL", "=", 4),
    ("COC(=O)/C=C1\\SC2C(NC(=O)Cc3cccs3)C(=O)N2C(C(=O)O)=C1COC(C)=O (configuration not stated)", "Providencia rettgeri", "µg/mL", ">", 125),
    ("COC(=O)/C=C1\\SC2C(NC(=O)C(O)c3ccccc3)C(=O)N2C(C(=O)O)=C1C (configuration not stated)", "Providencia rettgeri", "µg/mL", ">", 125),
    ("COC(=O)/C=C1\\SC2C(NC(=O)Cc3cccs3)C(=O)N2C(C(=O)O)=C1C (configuration not stated)", "Providencia rettgeri", "µg/mL", "=", 63),
    ("CO/N=C(/C(=O)NC1C(=O)N2C(C(=O)O)=C(C)/C(=C/C(=O)OC)SC12)c1csc(N)n1.O=C(O)C(F)(F)F (configuration not stated)", "Providencia rettgeri", "µg/mL", "=", 32),
]

###

- System: Streptococcus pneumoniae
- Procedure Summary: In vitro antibacterial activity against Streptococcus pneumoniae strain 9585
- Format: functional

# Compound, Display Unit, MIC
rows = [
    ("CC(=O)OCC1=C(C(=O)O)N2C(=O)[C@@H](NC(=O)Cc3cccs3)[C@H]2SC1 [CEPHALOTHIN]", "µg/mL", 0.03),
    ("CO/N=C(/C(=O)NC1C(=O)N2C(C(=O)O)=C(C)/C(=C/C(=O)OC)SC12)c1ccco1 (stereo not given)", "µg/mL", 0.25),
    ("COC(=O)/C=C1\\SC2C(NC(=O)C(O)c3ccccc3)C(=O)N2C(C(=O)O)=C1C (stereo not given)", "µg/mL", 0.25),
    ("COC(=O)/C=C1/SC2C(NC(=O)Cc3cccs3)C(=O)N2C(C(=O)O)=C1C (stereo not given)", "µg/mL", 0.5),
    ("COC(=O)/C=C1\\SC2C(NC(=O)Cc3cccs3)C(=O)N2C(C(=O)O)=C1C (stereo not given)", "µg/mL", 0.25),
]
